# RUN_DESCRIPTION: Selectivity index, ratio of CC50 for human MT4 cells to EC50 for wild-type HIV-1 IIIB infected in human MT4 cells
# Format: toxicity, cell-based
# CONDITION_NOTES: read-out: Selectivity Index
Note to self: values exactly at 1000 are Yes. So selectivity ratio at or above 1000 is Yes, below is No.

CPD_SMILES	CATEGORY
Cc1cc(/C=C/C#N)cc(C)c1Oc1nc(NC2CCN(Cc3ccc(C(N)=O)cc3)CC2)ncc1-c1cccc(O)c1	Yes
Cc1cc(/C=C/C#N)cc(C)c1Oc1nc(NC2CCN(Cc3ccc(S(C)(=O)=O)cc3)CC2)ncc1-c1ccc(F)cc1	No
Cc1cc(/C=C/C#N)cc(C)c1Oc1nc(NC2CCN(Cc3ccc(S(C)(=O)=O)cc3)CC2)ncc1-c1ccccc1N	No
Cc1cc(/C=C/C#N)cc(C)c1Oc1nc(NC2CCN(Cc3ccc(S(C)(=O)=O)cc3)CC2)ncc1-c1ccc2c(c1)OCO2	No
Cc1cc(/C=C/C#N)cc(C)c1Oc1nc(NC2CCN(Cc3ccc(S(C)(=O)=O)cc3)CC2)ncc1-c1cccc(F)c1	No
Cc1cc(/C=C/C#N)cc(C)c1Oc1nc(NC2CCN(Cc3ccc(S(C)(=O)=O)cc3)CC2)ncc1-c1ccccc1F	Yes
Cc1cc(/C=C/C#N)cc(C)c1Oc1nc(NC2CCN(Cc3ccc(C(N)=O)cc3)CC2)ncc1-c1ccc(F)cc1	Yes
Cc1cc(/C=C/C#N)cc(C)c1Oc1nc(NC2CCN(Cc3ccc(S(C)(=O)=O)cc3)CC2)ncc1-c1ccc(N)cc1	Yes
Cc1cc(/C=C/C#N)cc(C)c1Oc1nc(NC2CCN(Cc3ccc(C(N)=O)cc3)CC2)ncc1-c1cccc(F)c1	Yes
Cc1cc(/C=C/C#N)cc(C)c1Oc1nc(NC2CCN(Cc3ccc(C(N)=O)cc3)CC2)ncc1-c1ccccc1F	Yes
CC(=O)c1ccc(-c2cnc(NC3CCN(Cc4ccc(S(N)(=O)=O)cc4)CC3)nc2Oc2c(C)cc(/C=C/C#N)cc2C)cc1	Yes
Cc1cc(/C=C/C#N)cc(C)c1Oc1nc(NC2CCN(Cc3ccc(S(N)(=O)=O)cc3)CC2)ncc1-c1ccccc1O	Yes
Cc1cc(/C=C/C#N)cc(C)c1Oc1nc(NC2CCN(Cc3ccc(S(N)(=O)=O)cc3)CC2)ncc1-c1cccc(O)c1	Yes
CC(=O)c1ccc(-c2cnc(NC3CCN(Cc4ccc(C(N)=O)cc4)CC3)nc2Oc2c(C)cc(/C=C/C#N)cc2C)cc1	Yes
Cc1cc(/C=C/C#N)cc(C)c1Oc1nc(NC2CCN(Cc3ccc(C(N)=O)cc3)CC2)ncc1-c1ccc(N)cc1	Yes
Cc1cc(/C=C/C#N)cc(C)c1Oc1nc(NC2CCN(Cc3ccc(S(N)(=O)=O)cc3)CC2)ncc1-c1ccccc1N	No
CC(=O)c1ccc(-c2cnc(NC3CCN(Cc4ccc(S(C)(=O)=O)cc4)CC3)nc2Oc2c(C)cc(/C=C/C#N)cc2C)cc1	Yes
Cc1cc(/C=C/C#N)cc(C)c1Cc1nc(NC2CCN(Cc3ccc(S(C)(=O)=O)cc3)CC2)ncc1-c1cnc(N)nc1	No
Cc1cc(/C=C/C#N)cc(C)c1Oc1nc(NC2CCN(Cc3ccc(S(N)(=O)=O)cc3)CC2)ncc1-c1ccc(F)cc1	Yes
Cc1cc(/C=C/C#N)cc(C)c1Oc1nc(NC2CCN(Cc3ccc(C(N)=O)cc3)CC2)ncc1-c1ccccc1O	Yes
Cc1cc(/C=C/C#N)cc(C)c1Oc1nc(NC2CCN(Cc3ccc(S(N)(=O)=O)cc3)CC2)ncc1-c1cccc(F)c1	Yes
Cc1cc(/C=C/C#N)cc(C)c1Oc1nc(NC2CCN(Cc3ccc(C(N)=O)cc3)CC2)ncc1-c1ccc2c(c1)OCO2	Yes
Cc1cc(/C=C/C#N)cc(C)c1Oc1nc(NC2CCN(Cc3ccc(C(N)=O)cc3)CC2)ncc1-c1ccccc1N	Yes
Cc1cc(/C=C/C#N)cc(C)c1Cc1nc(NC2CCN(Cc3ccc(C(N)=O)cc3)CC2)ncc1-c1cnc(N)nc1	No
Cc1cc(/C=C/C#N)cc(C)c1Oc1nc(NC2CCN(Cc3ccc(S(C)(=O)=O)cc3)CC2)ncc1-c1ccc(O)cc1	No
Cc1cc(/C=C/C#N)cc(C)c1Cc1nc(NC2CCN(Cc3ccc(S(C)(=O)=O)cc3)CC2)ncc1-c1cncnc1	No
Cc1cc(/C=C/C#N)cc(C)c1Oc1nc(NC2CCN(Cc3ccc(S(C)(=O)=O)cc3)CC2)ncc1-c1ccccc1O	No
Cc1cc(/C=C/C#N)cc(C)c1Oc1nc(NC2CCN(Cc3ccc(S(N)(=O)=O)cc3)CC2)ncc1-c1ccc(N)cc1	Yes
Cc1cc(/C=C/C#N)cc(C)c1Cc1nc(NC2CCN(Cc3ccc(S(N)(=O)=O)cc3)CC2)ncc1-c1cncnc1	Yes
Cc1cc(/C=C/C#N)cc(C)c1Oc1nc(NC2CCN(Cc3ccc(S(N)(=O)=O)cc3)CC2)ncc1-c1ccc(O)cc1	Yes
